organism: Homo sapiens; assay: Inhibition against platelet aggregation induced by adenosine diphosphate (ADP) in vitro; type: functional
So basically: is IC50 under 1000 µM? Then Criterion met. Not under? Then Criterion not met.

C[C@@H](Oc1ccc(Cl)cc1)C(=O)O
Criterion met
CC[C@H](Oc1ccc(Cl)cc1)C(=O)O
Criterion not met
CC(C)(Oc1ccc(Cl)cc1)C(=O)O
Criterion not met

Asked: # TODO verify IC50 < 1000 µM strictly for this compound: `CC[C@@H](Oc1ccc(Cl)cc1)C(=O)O`
Given back: Criterion met

###

organism: Homo sapiens; assay: Inhibition against platelet aggregation induced by arachidonic acid(AA) in vitro; type: functional
// values below are reported IC50

Recorded IC50, per entry:
CC[C@@H](Oc1ccc(Cl)cc1)C(=O)O
721 µM
CC[C@H](Oc1ccc(Cl)cc1)C(=O)O
1600 µM
CC(C)(Oc1ccc(Cl)cc1)C(=O)O
> 4000 µM
C[C@@H](Oc1ccc(Cl)cc1)C(=O)O
253 µM

For `C[C@H](Oc1ccc(Cl)cc1)C(=O)O` the compound record lists IC50 as 1120 µM

###

species on record: Rattus norvegicus; experiment: Serum cholesterol level in male Sprague-Dawley rats (fed with high cholesterol semisynthetic diet) after 7 days of treatment; type: functional, organism-based
measured-attribute: Serum cholesterol (mg/dL)
The reply should contain only the number, in mg/dL.

Sample answers from the record:
CC[C@@H](Oc1ccc(Cl)cc1)C(=O)O
184
C[C@@H](Oc1ccc(Cl)cc1)C(=O)O
119
CC(C)(Oc1ccc(Cl)cc1)C(=O)O [CLOFIBRIC ACID]
149
CC[C@H](Oc1ccc(Cl)cc1)C(=O)O
193

Now look at this entry.
The molecule listed as `C[C@H](Oc1ccc(Cl)cc1)C(=O)O` shows Serum cholesterol equal to 184

Recorded values, source ChEMBL document CHEMBL1123854.
